pIC50 values for the compounds below.
System: RH7777
Assay Method Text: Antiproliferative effect against RH7777 cell line using sulforhodamine B(SRB) assay
Format: functional, cell-based
Run Parameters: Rattus norvegicus
pIC50: −log10 of the molar value.

Some compounds with known pIC50 results, for comparison:
Compound	Assay Metric	Experimental Value
CCCCCCCCCCCCCCCCCCNC(=O)[C@H]1CSC(c2ccccc2)N1S(C)(=O)=O (stereo partly specified)	pIC50	< 4.70
CCCCCCCCCCCCCCCCCCNC(=O)[C@H]1CSC(c2ccc([N+](=O)[O-])cc2)N1 (stereo partly specified)	pIC50	~4.70
CCCCCCCCCCCCCCCCCCNC(=O)[C@H]1CSC(CCCCCCCCCCCC)N1 (stereo partly specified)	pIC50	~4.70
CCCCCCCCCCCCCCCCCCNC(=O)[C@H]1CSC(C2CCCCC2)N1 (stereo partly specified)	pIC50	< 4.70

Return pIC50 (reported value) for this compound: CCCCCCCCCCCCCCCCCCNC(=O)[C@H]1CSC(c2ccc(-c3ccccc3)cc2)N1 (stereo partly specified) < 4.70

Note down pIC50 recorded for CCCCCCCCCCCCCCCCCCNC(=O)[C@H]1CSC(c2c(Cl)cccc2Cl)N1 (stereo partly specified) < 4.70

###

System: TSU
Assay Method Text: Antiproliferative activity against prostate cancer TSU-Pr1 cell line using sulforhodamine B(SRB) assay
Type: functional, cell-based
Run Parameters: Homo sapiens
pIC50: −log10 of the molar value.
Quick reference: pIC50 of the listed items.

Some entries whose results are on file:
Molecule	Target Or System	Assay Metric	Experimental Value
CCCCCCCCCCCCCCCCCCNC(=O)[C@H]1CSC(c2ccc(-c3ccccc3)cc2)N1 (stereo partly drawn)	TSU	pIC50	< 4.70
CCCCCCCCCCCCCCCCCCNC(=O)[C@H]1CSC(C2CCCCC2)N1 (stereo partly drawn)	TSU	pIC50	< 4.70

Now look at this entry.
Look up and report measured pIC50 (TSU) for the following molecule: CCCCCCCCCCCCCCCCCCNC(=O)[C@H]1CSC(c2ccccc2)N1C(C)=O (stereo partly drawn) < 4.70

Data origin: ChEMBL document CHEMBL1143576
